# System: CD2F1 mice, L1210 leukemia ip, survival T/C
# TEST METHOD NOTES: NCI In Vivo Anticancer Drug Screen. Data for tumor model L1210 Leukemia (intraperitoneal) in CD2F1 (CDF1) mice
# CONDITION INFO: endpoint: mean survival time; dose: 200.0 mg/kg/injection; schedule: Q01DX001 (ip); vehicle: saline with Tween-80; higher = longer survival
Toxic doses and inconclusive results are not listed.
READOUT: T/C

1. CC(C)(C(O)c1ccccc1)[N+](=O)[O-] (configuration not stated) :: 102 % of control
2. Cc1nc(N)[nH]c(=O)c1-n1nnc2ccccc2c1=O :: 87 % of control
3. Cc1cc(C)nc(NS(=O)(=O)c2ccc(NCN3C(=O)c4ccccc4C3=O)cc2)n1 :: 107 % of control
4. OC(CI)C(O)C(O)C(O)CI (configuration not stated) (tested in a mixture with another compound) :: 96 % of control
5. CCCCNC1=CC(=O)c2ccccc2C1=O :: 95 % of control
6. O=C(NC(=S)Nc1ccc(CCO)cc1)c1cccc(Br)c1 :: 98 % of control
7. CC(F)(F)Cc1ccccc1 :: 102 % of control
8. CC(=O)/C(N=O)=C(/C)O :: 88 % of control
9. COc1ccccc1N=Nc1c(O)n(-c2ccccc2OC)c(=S)n(-c2ccc(I)cc2)c1=O :: 93 % of control
10. O=C1Nc2ccc(C(=O)O)c(O)c2C1=O :: 100 % of control
11. O=C(NCCCl)Nc1cccc(Cl)c1 :: 102 % of control
12. COC1=CCC(=Nc2ccccc2)C=C1 :: 102 % of control
13. Cc1ccc(S(=O)(=O)OC2C(O)OC3COC(c4ccccc4)OC3C2OS(=O)(=O)c2ccc(C)cc2)cc1 (configuration not stated) :: 105 % of control
14. CC(=O)NC(Cc1ccccc1)c1ccccc1 (configuration not stated) :: 105 % of control
15. O=Nc1c(O)sc2ccccc12 :: 105 % of control
16. CC(=O)N(N)c1ccccc1 :: 109 % of control
17. O=C(O)c1cnc(Cl)nc1Nc1ccccc1I :: 86 % of control
18. CC1CCC(O)C2(C)CC(O)C(C(C)C(=O)O)CC12 (configuration not stated) :: 92 % of control
19. COc1ccc(NC(=O)NCCCl)cc1 :: 94 % of control
20. C[N+]1(C)N=C([O-])N(c2cccc3ccccc23)C1=O :: 101 % of control
21. c1ccc(CCc2nc(-c3ccccc3)cc(-c3ccccc3)n2)cc1 :: 92 % of control
22. COc1ccc(/C=C2\Oc3cc(O)ccc3C2=O)cc1O :: 94 % of control

---

# System: CD2F1 mice, L1210 leukemia ip, survival T/C
# TEST METHOD NOTES: NCI In Vivo Anticancer Drug Screen. Data for tumor model L1210 Leukemia (intraperitoneal) in CD2F1 (CDF1) mice
# CONDITION INFO: endpoint: mean survival time; dose: 100.0 mg/kg/injection; schedule: Q04DX003 (ip); vehicle: saline
Toxic doses and inconclusive results are not listed. Rule for the calls: active = survival T/C of 150% or more; inactive = T/C below 125% in these data.
Classes used: active, inactive

1. CCCCS(=O)(=O)OCCCCOS(=O)(=O)CCCC :: inactive
2. Oc1ccccc1N=Cc1ccccc1 :: inactive
3. O=S1(=O)CC(S(=O)(=O)O)C(S(=O)(=O)O)C1 (stereo not given) :: inactive
4. CN(C)CCCNCc1c[nH]c(=O)[nH]c1=O :: inactive
5. Cc1ccc(S(=O)(=O)/C=C(\I)c2ccc([N+](=O)[O-])cc2)cc1 :: inactive
6. CN(C)CCCNCC#CCNCCCN(C)C :: inactive
7. OCC1OC(n2cnc3c(=S)nc[nH]c32)C(O)C1O (stereo not given) :: inactive
8. CN(C)Cc1cc(CN(C)C)c(O)c(CN(C)C)c1 :: inactive
9. COC1C(O)CC(=O)OC(C)C/C=C/C=C/C(OC2CCC(N(C)C)C(C)O2)C(C)CC(CC=O)C1OC1OC(C)C(OC2CC(C)(O)C(O)C(C)O2)C(N(C)C)C1O (stereo not given) :: inactive
10. CCCCN(CCCC)CCCN(CCCOS(C)(=O)=O)CCCOS(C)(=O)=O :: active
11. COC(=O)C12CCC1(Cl)CC2 (stereo not given) :: inactive
12. NNC(=O)COc1ccccc1 :: inactive
13. C1=CC(=C(C2CCC(Nc3ccccc3)CC2)C2CCC(Nc3ccccc3)CC2)C=CC1=Nc1ccccc1 (stereo not given) :: inactive
14. CC(=O)Oc1c(Br)cc(Br)cc1-c1ccccc1 :: inactive
15. CCn1ncc2ccc(N(CO)CO)cc21 :: inactive
